Tested on: Rattus norvegicus
Assay: Compound was tested for oral diuretic effect on spontaneously hypertensive rats by measuring the excretion of sodium at 1 mg/kg concentration
Assay type: ADME, organism-based, Urine
Parameters: dose 1 mg/kg, route oral
Details: in vivo
Attribute measured: Na+ excretion (m equiv 5hr-1 kg-1)

Cl.N#CN/C(=N\[C@H]1C[C@H]2CC[C@@H]1C2)Nc1ccc(N)nc1 (racemic) :: 0.89
CC(N/C(=N\C#N)Nc1ccncc1)C(C)(C)C (centres undefined) [PINACIDIL ANHYDROUS] :: 1.27

[a] C[C@]12CC[C@H](C[C@@H]1/N=C(\NC#N)Nc1ccc(N)nc1)C2.Cl (racemic)
[b] Cl.N#CN/C(=N\[C@@H]1CC2CCC1C2)Nc1ccc(N)nc1 (mixture of isomers)
Prompt: Of a and b , whose reported Na+ excretion is the larger number? State your choice using its label.
Completion: b

====

Tested on: Rattus norvegicus
Experiment: Compound was tested for oral diuretic effect on spontaneously hypertensive rats by measuring the potassium excretion at 1 mg/kg concentration
Format: ADME, organism-based, Urine
Design: dose 1 mg/kg, route oral
Details: in vivo
Attribute measured: K+ excretion (m equiv 5hr-1 kg-1)

Previously resolved entries follow.
Cl.N#CN/C(=N\[C@H]1C[C@H]2CC[C@@H]1C2)Nc1ccc(N)nc1 (racemic) :: 0.646
CC(N/C(=N\C#N)Nc1ccncc1)C(C)(C)C (centres undefined) [PINACIDIL ANHYDROUS] :: 1.546

[I] Cl.N#CN/C(=N\[C@@H]1CC2CCC1C2)Nc1ccc(N)nc1 (mixture of isomers)
[II] C[C@]12CC[C@H](C[C@@H]1/N=C(\NC#N)Nc1ccc(N)nc1)C2.Cl (racemic)
Prompt: Of I and II , whose reported K+ excretion is the larger number? State your choice using its label.
Completion: I
(I: 1.35 m equiv 5hr-1 kg-1, II: 0.747 m equiv 5hr-1 kg-1)

====

Tested on: Rattus norvegicus
Assay: Compound was tested for oral diuretic effect on spontaneously hypertensive rats by measuring the potassium excretion at 5 mg/kg concentration
Type: ADME, organism-based, Urine
Design: dose 5 mg/kg, route oral
Conditions: in vivo
Attribute measured: K+ excretion (m equiv 5hr-1 kg-1)

Previously resolved entries follow.
C[C@]12CC[C@H](C[C@@H]1/N=C(\NC#N)Nc1ccc(N)nc1)C2.Cl (racemic) :: 0.515
Cl.N#CN/C(=N\[C@@H]1CC2CCC1C2)Nc1ccc(N)nc1 (mixture of isomers) :: 1.249

[a] Cl.N#CN/C(=N\[C@H]1C[C@H]2CC[C@@H]1C2)Nc1ccc(N)nc1 (racemic)
[b] CC(N/C(=N\C#N)Nc1ccncc1)C(C)(C)C (centres undefined) [PINACIDIL ANHYDROUS]
Prompt: Kindly compare a with b and tell me which has the lower K+ excretion figure. State your choice using its label.
Completion: b
(b: 0.584 m equiv 5hr-1 kg-1, a: 1.46 m equiv 5hr-1 kg-1)

====

Assay: Ratio between Na+ and K+ excretion values at a dose of 1 mg/kg
Assay type: ADME, organism-based
Design: dose 1 mg/kg
Details: in vivo
Attribute measured: Ratio

Cl.N#CN/C(=N\[C@@H]1CC2CCC1C2)Nc1ccc(N)nc1 (mixture of isomers) :: 1.08

[I] CC(N/C(=N\C#N)Nc1ccncc1)C(C)(C)C (centres undefined) [PINACIDIL ANHYDROUS]
[II] Cl.N#CN/C(=N\[C@H]1C[C@H]2CC[C@@H]1C2)Nc1ccc(N)nc1 (racemic)
Prompt: Kindly compare I with II and tell me which has the lower Ratio figure. State your choice using its label.
Completion: I
